Below, each entry is listed with its recorded median fluorescence intensity, fold over isotype control.
molecular target: SARS-CoV-2 full length Spike protein, wild type, expressed on CHO cells (SARS-CoV-2, UniProt P0DTC2 14-1273)
MEASUREMENT_KIND: median fluorescence intensity, fold over isotype control (fold over isotype)

BINDER	MEASURED_VALUE
anti-SARS-CoV-2 antibody 1538 (antibody, V domains shown) VH: EVQLLESGGGLVQPGGSLRLSCAASGFTFSSYAMSWVRQAPGKGLEWVSGISDSGGSTYYADYVKGRFTISRDNSKDTLYLQMNSLRAEDTAVYYCAKDRGNEYALTHYYYYAMDVWGQGTTVTVSS VL: DIQMTQSPSSLSASVGDRVTITCRASQSISSYLNWYQQKPGKAPKLLIYAAYSLQSGVPSRFSGGGSGTDFTLTISSLQPEDFATYFCQQSYSTPITFGQGTRLEIKR	67.5
anti-SARS-CoV-2 antibody 1149 (antibody, V domains shown) VH: QVQLVQSGAEVKKPGASVKVSCKASGYTFASYDINWVRQATGQGPEWMGWMIPNIGNTGYAQKFQGRVTMTRNTSISTAYMELSSLTSEDTAVYYCARVSRLFNDFGLRHEAPVDFWGQGTRVTVSS VL: QSVLTQPPSVSGAPGQRVTISCTGSSSNIGAGYDVHWYQQLPGTAPKLLIYGYSSRPSGVPDRFSGSKSGTSASLAITGLQAEDEADYYCQSYDSSLSVLFGGGTKLTVLG	19.2
anti-SARS-CoV-2 antibody 1404 (antibody, V domains shown) VH: QITLKESGPTLVKPTQTLTLTCTFSGFSLSISGVGVGWLRQPPGKALEWLALIYWDDDKRYSPSLKSRLTISKDTSKNQVVLKMTNIDPVDTATYYCAHHSISTIFDHWGQGTLVTVSS VL: QSALTQPASVSGSPGQSITISCTATSSDVGDYNYVSWYQQHPGKAPKLMIFEVSDRPSGISNRFSGSKSGNTASLTISGLQAEDEADYYCSSYTTSSAVFGGGTKLTVLG	71.2
